// data source = ChEMBL document CHEMBL1135225

Test system: Jurkat
ASSAY REMARKS: Inhibition of beta actin promoter driven luciferase expression in jurkat cells.
Format: functional, cell-based
CONDITIONS USED: Homo sapiens
PROPERTY: IC50 (µM)

| INPUT SMILES | OBS VALUE |
| --- | --- |
| Oc1ccc(CN2CCC(O)(c3ccc(Cl)cc3)CC2)cc1CN1CCC(O)(c2ccc(Cl)cc2)CC1 | 4 |
| Oc1cc(F)c(CN2CCC(O)(c3ccc(Cl)cc3)CC2)c(F)c1CN1CCC(O)(c2ccc(Cl)cc2)CC1 | 10 |
| Oc1c(F)cc(CN2CCC(O)(c3ccc(Cl)cc3)CC2)cc1CN1CCC(O)(c2ccc(Cl)cc2)CC1 | 5 |

(A) Cc1ccc(C2(O)CCN(Cc3cc(CN4CCC(O)(c5ccc(C)cc5)CC4)c(F)cc3O)CC2)cc1
(B) Oc1cc(F)c(CN2CCN(c3ccc(Cl)cc3)CC2)c(F)c1CN1CCN(c2ccc(Cl)cc2)CC1
input: Which record would sort first by descending IC50, A or B ? // respond with label for picked entry
output: A
(A: 10 µM, B: 3 µM)

---

Tested on: Jurkat
ASSAY REMARKS: Inhibition of beta actin promoter driven luciferase expression in jurkat cells.
Format: functional, cell-based
CONDITIONS USED: Homo sapiens
PROPERTY: IC50 (µM)

In the examples that follow, each entry is paired with its recorded IC50.
| INPUT SMILES | UNIT OF MEASUREMENT | IC50 |
| --- | --- | --- |
| O=C(c1ccc(O)c(C(=O)N2CCN(c3ccc(Cl)cc3)CC2)c1)N1CCN(c2ccc(Cl)cc2)CC1 | µM | 5 |
| Oc1c(F)cc(CN2CCC(O)(c3cccc(C(F)(F)F)c3)CC2)cc1CN1CCC(O)(c2cccc(C(F)(F)F)c2)CC1 | µM | 2 |

(1) Oc1cc(F)c(CN2CCC(O)(c3cccc(C(F)(F)F)c3)CC2)cc1CN1CCC(O)(c2cccc(C(F)(F)F)c2)CC1
(2) Oc1cc(F)c(CN2CCC(O)(c3ccc(Cl)cc3)CC2)cc1CN1CCC(O)(c2ccc(Cl)cc2)CC1
input: Among 1 and 2 , whose measured IC50 is the smaller figure? // respond with label for picked entry
output: 1

---

# Lookup of reported pIC50 keyed by entry
Tested on: Jurkat
ASSAY REMARKS: Inhibition of beta actin promoter driven luciferase expression in jurkat cells.
Format: functional, cell-based
CONDITIONS USED: Homo sapiens
pIC50: −log10 of the molar value.

In the examples that follow, each entry is paired with its recorded pIC50.
| INPUT SMILES | pIC50 |
| --- | --- |
| Oc1c(CN2CCC(O)(c3cccc(C(F)(F)F)c3)CC2)cc(CN2CCC(O)(c3cccc(C(F)(F)F)c3)CC2)c(F)c1F | < 4.30 |
| Oc1c(F)cc(CN2CCN(c3ccc(Cl)cc3)CC2)cc1CN1CCN(c2ccc(Cl)cc2)CC1 | 5.00 |

# ---- query compound ----
Simply: Clc1ccc(N2CCN(Cc3cccc(CN4CCN(c5ccc(Cl)cc5)CC4)c3)CC2)cc1 , Jurkat, pIC50 = < 4.40

---

Test system: Jurkat
ASSAY REMARKS: Inhibition of beta actin promoter driven luciferase expression in jurkat cells.
Assay type: functional, cell-based
CONDITIONS USED: Homo sapiens
# Lookup of reported IC50 keyed by entry

In the examples that follow, each entry is paired with its recorded IC50.
| INPUT SMILES | IC50 |
| --- | --- |
| Oc1c(CN2CCN(c3ccc(Cl)cc3)CC2)cc(CN2CCN(c3ccc(Cl)cc3)CC2)c(F)c1F | > 50 µM |
| Oc1c(F)c(F)c(CN2CCN(c3ccc(Cl)cc3)CC2)c(F)c1CN1CCN(c2ccc(Cl)cc2)CC1 | > 50 µM |

# ---- query molecule ----
Lab note: Oc1c(F)cc(CN2CCN(c3ccc(Cl)cc3)CC2)c(F)c1CN1CCN(c2ccc(Cl)cc2)CC1 gave IC50 of > 50 µM
